- ASSAY NAME: Therapeutic index, ratio of TD50 for human foreskin fibroblasts to IC50 for Toxoplasma gondii infected in human foreskin fibroblasts
- EXPERIMENTAL CONTEXT: read-out: TI
Label true when selectivity ratio is at or above 6; otherwise label false.

>>> df
                                    compound  category
 0  O=C1CS/C(=N/N=C\c2ccc3c(c2)OCO3)N1Cc1ccccc1     false
 1  CC1CCC/C1=N/N=C1/SCC(=O)N1Cc1ccccc1 (configuration not stated)      true
 2  CC1CCC/C1=N/N=C1\NC(=O)CS1 (configuration not stated)      true
 3  O=C1CS/C(=N/N=C\c2c[nH]c3ccccc23)N1Cc1ccccc1     false
 4      C=CCC/C(C)=N\N=C1\SCC(=O)N1Cc1ccccc1     false
 5             C/C(=N/N=C1\NC(=O)CS1)c1cccs1      true
 6                   O=C1CSC(NN=C2CCCCC2)=N1      true
 7     C/C(CC(C)C)=N/N=C1/SCC(=O)N1Cc1ccccc1      true
 8         CCC(CC)=N/N=C1/SCC(=O)N1Cc1ccccc1      true
 9  CC1CCCC/C1=N/N=C1/SCC(=O)N1Cc1ccccc1 (configuration not stated)      true
10              C/C(CC(C)C)=N/N=C1\NC(=O)CS1      true
11      C/C(=N/N=C1\NC(=O)CS1)c1ccc2ccccc2c1      true
12                  O=C1CSC(NN=C2CCCCCC2)=N1     false
13  O=C1CS/C(=N/N=C\c2cccc3ccccc23)N1Cc1ccccc1      true
14  CC(C)(C)C1CCCC/C1=N/N=C1\NC(=O)CS1 (configuration not stated)     false
15      O=C1CS/C(=N/N=C2CCCCCCC2)N1Cc1ccccc1     false
16                 O=C1CSC(NN=C2CCCCCCC2)=N1     false
17  CC1CC/C(=N/N=C2/SCC(=O)N2Cc2ccccc2)C1 (configuration not stated)     false
18               O=C1CS/C(=N/N=C\c2cccnc2)N1      true
19  CC1CCC(=N/N=C2/SCC(=O)N2Cc2ccccc2)CC1 (configuration not stated)     false
20   C/C(=N/N=C1/SCC(=O)N1Cc1ccccc1)c1ccccc1      true
21                    O=C1CSC(NN=C2CCCC2)=N1      true
22      CCCC/C(CC)=N\N=C1\SCC(=O)N1Cc1ccccc1      true
23       O=C1CS/C(=N/N=C\c2cccs2)N1Cc1ccccc1     false
24                    CC(C)=N/N=C1\NC(=O)CS1     false
25    C/C(=N/N=C1/SCC(=O)N1Cc1ccccc1)c1ccco1      true
26  C/C(=N/N=C1/SCC(=O)N1Cc1ccccc1)c1ccc2ccccc2c1     false
27       O=C1CS/C(=N/N=C2CCCCCC2)N1Cc1ccccc1     false
28       O=C1CS/C(=N/N=C\c2c[nH]c3ccccc23)N1     false
29            C/C(=N/N=C1\NC(=O)CS1)c1ccccc1     false
30  CC1CCC(=N/N=C2\NC(=O)CS2)CC1 (configuration not stated)     false
31    CC(C)=C/C(C)=N\N=C1\SCC(=O)N1Cc1ccccc1     false
32    C/C(=N/N=C1\NC(=O)CS1)c1cc2ccccc2oc1=O      true
33            C/C(=N/N=C1\NC(=O)CS1)C1CCCCC1      true
34            C/C(=N/N=C1\NC(=O)CS1)c1cccnc1      true
35                  CCC(CC)=N/N=C1\NC(=O)CS1     false
36        O=C1CS/C(=N/N=C2CCCCC2)N1Cc1ccccc1     false
37            C/C(=N\N=C1/NC(=O)CS1)c1ccncc1      true
38         O=C1CS/C(=N/N=C2CCCC2)N1Cc1ccccc1     false
39      O=C1CS/C(=N/N=C\c2ccncc2)N1Cc1ccccc1     false
40              CCCCCC/C(C)=N\N=C1/NC(=O)CS1      true
41               O=C1CS/C(=N/N=C\c2ccncc2)N1      true
42    C/C(=N/N=C1/SCC(=O)N1Cc1ccccc1)c1cccs1      true
43  CC1CC/C(=N/N=C2\NC(=O)CS2)C1 (configuration not stated)      true
44      CCCCC/C(C)=N\N=C1\SCC(=O)N1Cc1ccccc1     false
45   C/C(=N/N=C1/SCC(=O)N1Cc1ccccc1)C1CCCCC1     false
46        CCC/C(C)=N\N=C1\SCC(=O)N1Cc1ccccc1      true
